These data points were gathered from paper PMC2850574.

molecular target: wild-type SecA (Escherichia coli SecA ATPase) (E. coli, UniProt P10408 9-836); test: fluorescence polarisation
Ends that are not written are not given here.
readout: Kd (nM)
Respond numerically; units are nM and should not be typed.

Q: Need Kd, item MKQSTIALALLPLLFTPVTKAC(IANBD)-NH2 [IANBD-labeled alkaline phosphatase signal peptide SP22]
Result: 1400
